# System: HCV replicon cells
# experimentNotes: HCV replicon FRET assay
# Format: cell-based
# conditionInfo: Hepatitis C virus
# Excerpt: FRET Assay Preparation. To perform the HCV FRET screening assay, 96-well cell culture plates were used. The FRET peptide (Anaspec, Inc.) (Taliani et al., Anal. Biochem. 1996, 240, 60-67) contains a fluorescence donor, EDANS, near one end of the peptide and an acceptor, DABCYL, near the other end. […] Assays. […] The plate was then placed into the Cytoflour 4000 instrument which had been set to 340 excite/490 emission, automatic mode for 20 cycles and the plate read in a kinetic mode. […]
Recorded EC50 values for a group of compounds are listed next.
quantityKind: EC50 (nM)

| compound | unitsSymbol | dataValue |
| --- | --- | --- |
| COc1ccc2c(c1)[C@@H]1OC(C)(C)O[C@]1(C(=O)N1C3CCC1CN(C)C3)Cn1c-2c(C2CCCCC2)c2ccc(C(=O)NS(=O)(=O)N(C)C)cc21 (racemic) | nM | 140 |
| COc1ccc2c(c1)[C@@H]1OCO[C@]1(C(=O)N1C3CCC1CN(C)C3)Cn1c-2c(C2CCCCC2)c2ccc(C(=O)NS(=O)(=O)N(C)C)cc21 (racemic) | nM | 140 |
| COc1ccc2c(c1)[C@@H]1OC(=O)O[C@]1(C(=O)N1C3CCC1CN(C)C3)Cn1c-2c(C2CCCCC2)c2ccc(C(=O)NS(=O)(=O)N(C)C)cc21 (racemic) | nM | 100 |
| COc1ccc2c(c1)[C@@H]1OC(C)(C)O[C@]1(C(=O)N1C[C@@H](C)O[C@@H](C)C1)Cn1c-2c(C2CCCCC2)c2ccc(C(=O)NS(=O)(=O)N(C)C)cc21 (racemic) | nM | 170 |
